assay: in vivo; settings: male, C57Bl/6, mouse, iv
OUTCOME MEASURE: Vd (L/kg)

INSERT INTO assay_data (molecule, outcome_measure, test_value) VALUES
  ('CCOC(=O)C=CC(CC1CCNC1=O)NC(=O)C(Cc1ccccc1)NC(=O)C(N)Cc1ccccc1 (stereo not shown) [SM141]', 'Vd', 1.6);

---

tested on: SARS-CoV-2; assay: microbe, parasite or virus in culture; format: cell-based; settings: Severe acute respiratory syndrome coronavirus 2; A549-hACE2 cells; read-out: EC50, inhibition of SARS-CoV-2 infection
OUTCOME MEASURE: EC50 (nM)

INSERT INTO assay_data (compound, assayed_system, outcome_measure, display_unit, test_value) VALUES
  ('CCOC(=O)C=CC(CC1CCNC1=O)NC(=O)C(Cc1ccccc1)NC(=O)C(N)Cc1ccccc1 (centres unmarked)', 'SARS-CoV-2', 'EC50', 'nM', 8.2),
  ('CCOC(=O)C=CC(CC1CCNC1=O)NC(=O)C(Cc1ccccc1)NC(=O)C(Cc1ccc(F)cc1)NC(=O)OC(C)(C)C (centres unmarked)', 'SARS-CoV-2', 'EC50', 'nM', 14.7);

---

// values below are reported log10 kinact/KI
target: SARS-CoV-2 M^Pro (Severe acute respiratory syndrome coronavirus 2); assay: Determination of kinact/KI values for SARS-CoV-2 M^Pro (time- and concentration-dependent inactivation); assay type: biochemical; details: read-out: M^Pro kinact/KI
OUTCOME MEASURE: log10 kinact/KI (log10 of the value in M⁻¹ s⁻¹)

INSERT INTO results (molecule, test_value) VALUES
  ('CCOC(=O)C=CC(CC1CCNC1=O)NC(=O)C(Cc1ccccc1)NC(=O)C(N)Cc1ccc(F)cc1 (centres unmarked) [SM143]', 2.54),
  ('CCOC(=O)C=CC(CC1CCNC1=O)NC(=O)C(Cc1ccc(F)cc1)NC(=O)C(Cc1ccc(F)cc1)NC(=O)OC(C)(C)C (centres unmarked) [SM138]', 1.03),
  ('C#CCOCCC(=O)NC(Cc1ccccc1)C(=O)NC(Cc1ccccc1)C(=O)NC(C=CC(=O)OCC)CC1CCNC1=O (centres unmarked) [SM145]', 2.60),
  ('CCOC(=O)C=CC(CC1CCNC1=O)NC(=O)C(Cc1ccc(F)cc1)NC(=O)C(N)Cc1ccc(F)cc1 (centres unmarked) [SM139]', 1.40),
  ('CCOC(=O)C=CC(CC1CCNC1=O)NC(=O)C(Cc1ccc(F)cc1)NC(=O)C(Cc1ccccc1)NC(=O)OC(C)(C)C (centres unmarked) [SM136]', 1.11),
  ('CCOC(=O)C=CC(CC1CCNC1=O)NC(=O)C(Cc1ccc(F)cc1)NC(=O)C(N)Cc1ccccc1 (centres unmarked) [SM137]', 1.48),
  ('CCOC(=O)C=CC(CC1CCNC1=O)NC(=O)C(Cc1ccccc1)NC(=O)C(Cc1ccc(F)cc1)NC(=O)OC(C)(C)C (centres unmarked) [SM142]', 2.26),
  ('CCOC(=O)C=CC(CC1CCNC1=O)NC(=O)C(Cc1ccccc1)NC(=O)C(Cc1ccccc1)NC(=O)OC(C)(C)C (centres unmarked) [SM140]', 2.18);

---

assay: in vivo; conditions: male, C57Bl/6, mouse, ip
OUTCOME MEASURE: bioavailability (%)

INSERT INTO measurements (compound, display_unit, test_value) VALUES
  ('CCOC(=O)C=CC(CC1CCNC1=O)NC(=O)C(Cc1ccccc1)NC(=O)C(N)Cc1ccccc1 (stereo not shown) [SM141]', '%', 35.2);

---

experiment: in vivo; details: male, C57Bl/6, mouse, iv
OUTCOME MEASURE: half-life (min)

INSERT INTO results (compound, outcome_measure, test_value) VALUES
  ('CCOC(=O)C=CC(CC1CCNC1=O)NC(=O)C(Cc1ccccc1)NC(=O)C(N)Cc1ccccc1 (stereo not shown)', 'half-life', 48);

---

assay: Pharmacokinetic parameters in mice (plasma, LC-MS/MS); conditions: male, C57Bl/6, mouse, plasma, iv, 3 mg/kg
OUTCOME MEASURE: AUC(0-t) (µM·h)

INSERT INTO results (compound, outcome_measure, display_unit, test_value) VALUES
  ('CCOC(=O)C=CC(CC1CCNC1=O)NC(=O)C(Cc1ccccc1)NC(=O)C(Cc1ccc(F)cc1)NC(=O)OC(C)(C)C (stereo not shown)', 'AUC(0-t)', 'µM·h', 0.4);

---

test: in vivo; conditions: male, C57Bl/6, mouse, iv
OUTCOME MEASURE: Cmax

INSERT INTO measurements (compound, test_value) VALUES
  ('CCOC(=O)C=CC(CC1CCNC1=O)NC(=O)C(Cc1ccccc1)NC(=O)C(N)Cc1ccccc1 (stereo not shown)', '3.9 µM');

---

assay: in vivo; conditions: male, C57Bl/6, mouse, ip
OUTCOME MEASURE: Cmax (nM)

INSERT INTO assay_data (compound, display_unit, test_value) VALUES
  ('CCOC(=O)C=CC(CC1CCNC1=O)NC(=O)C(Cc1ccccc1)NC(=O)C(N)Cc1ccccc1 (stereo not shown)', 'nM', 2700);

---

assay: Pharmacokinetic parameters in mice (plasma, LC-MS/MS); conditions: male, C57Bl/6, mouse, plasma, po, 10 mg/kg
OUTCOME MEASURE: AUC(0-inf) (ng·h/mL)

INSERT INTO results (molecule, display_unit, test_value) VALUES
  ('CCOC(=O)C=CC(CC1CCNC1=O)NC(=O)C(Cc1ccccc1)NC(=O)C(Cc1ccc(F)cc1)NC(=O)OC(C)(C)C (stereo not shown)', 'ng·h/mL', 347);

---

assay: Pharmacokinetic parameters in mice (plasma, LC-MS/MS); conditions: male, C57Bl/6, mouse, plasma, po, 10 mg/kg
OUTCOME MEASURE: bioavailability (%)

INSERT INTO results (compound, outcome_measure, test_value) VALUES
  ('CCOC(=O)C=CC(CC1CCNC1=O)NC(=O)C(Cc1ccccc1)NC(=O)C(Cc1ccc(F)cc1)NC(=O)OC(C)(C)C (stereo not shown)', 'bioavailability', 37.5);

---

assay: Pharmacokinetic parameters in mice (plasma, LC-MS/MS); settings: male, C57Bl/6, mouse, plasma, iv, 3 mg/kg
OUTCOME MEASURE: AUC(0-inf) (ng·h/mL)

INSERT INTO measurements (compound, display_unit, test_value) VALUES
  ('CCOC(=O)C=CC(CC1CCNC1=O)NC(=O)C(Cc1ccccc1)NC(=O)C(Cc1ccc(F)cc1)NC(=O)OC(C)(C)C (stereo not shown) [SM142]', 'ng·h/mL', 308);

---

assay: Pharmacokinetic parameters in mice (plasma, LC-MS/MS); details: male, C57Bl/6, mouse, plasma, po, 10 mg/kg
OUTCOME MEASURE: Tmax (min)

INSERT INTO results (compound, test_value) VALUES
  ('CCOC(=O)C=CC(CC1CCNC1=O)NC(=O)C(Cc1ccccc1)NC(=O)C(Cc1ccc(F)cc1)NC(=O)OC(C)(C)C (stereo not shown)', 4.8);

---

molecular target: SARS-CoV-2 M^Pro (Severe acute respiratory syndrome coronavirus 2); test: Determination of IC50 values for SARS-CoV-2 M^Pro (fluorogenic peptide substrate, end-point); assay type: biochemical; details: 12.5 nM M^Pro, 20 min preincubation, 30 μM substrate; read-out: M^Pro IC50
OUTCOME MEASURE: IC50 (nM)

INSERT INTO results (molecule, display_unit, test_value) VALUES
  ('C#CCOCCC(=O)NC(Cc1ccc(F)cc1)C(=O)NC(Cc1ccccc1)C(=O)NC(C=CC(=O)OCC)CC1CCNC1=O (stereo not drawn)', 'nM', 700),
  ('CCOC(=O)C=CC(CC1CCNC1=O)NC(=O)C(Cc1ccccc1)NC(=O)C(N)Cc1ccc(F)cc1 (stereo not drawn)', 'nM', 900),
  ('C#CCOCCC(=O)NC(Cc1ccccc1)C(=O)NC(Cc1ccccc1)C(=O)NC(C=CC(=O)OCC)CC1CCNC1=O (stereo not drawn)', 'nM', 800);
